The entries below come with measured percent inhibition of AR, 3000.0 nM values attached.
# System: AR mRNA
# EXPERIMENTAL_PROTOCOL: Dose-dependent antisense inhibition of human AR in HuVEC cells (electroporation, qRT-PCR RTS3559, IC50)
# Assay type: cell-based
# MEASUREMENT_CONTEXT: Table 30; 3000.0 nM, HuVEC, electroporation, approximately 16 hours
Oligonucleotides are written 5' to 3', each unit as a sugar letter and its base; * is a phosphorothioate linkage, no mark a phosphodiester; rarer units and linkages stand in square brackets, end groups in braces. Plain capitals give the bases only. k = constrained ethyl (cEt); [5mC] = 5-methylcytosine; d = 2'-deoxy (DNA)
Output spec: scalar in %, unitless text.

# example entries with known answers
INSERT INTO assay_data (substance, result_type, value_units, result) VALUES
  ('583689 (antisense kA*kT*kG*d[5mC]*dG*dG*dT*dA*dG*dT*d[5mC]*dG*d[5mC]*kT*kG*k[5mC]) [compound 583689]', 'percent inhibition of AR, 3000.0 nM', '%', 74),
  ('583727 (antisense kG*kA*kT*dT*d[5mC]*dT*dG*dG*dA*dA*dA*dG*d[5mC]*kT*k[5mC]*k[5mC]) [compound 583727]', 'percent inhibition of AR, 3000.0 nM', '%', 76),
  ('583692 (antisense kG*kT*kG*dA*dT*dG*dA*dT*dG*d[5mC]*dG*dG*dT*kA*kG*kT) [compound 583692]', 'percent inhibition of AR, 3000.0 nM', '%', 71),
  ('583687 (antisense kG*kG*kT*dA*dG*dT*d[5mC]*dG*d[5mC]*dT*dG*d[5mC]*dA*kG*k[5mC]*kT) [compound 583687]', 'percent inhibition of AR, 3000.0 nM', '%', 81),
  ('583745 (antisense k[5mC]*kG*k[5mC]*dT*d[5mC]*dG*d[5mC]*dG*dG*d[5mC]*d[5mC]*dT*d[5mC]*kT*kG*kG) [compound 583745]', 'percent inhibition of AR, 3000.0 nM', '%', 77);

Notebook: 583667 (antisense k[5mC]*kG*k[5mC]*dT*d[5mC]*dT*dG*dA*d[5mC]*dA*dG*d[5mC]*d[5mC]*kT*k[5mC]*kA) [compound 583667] , percent inhibition of AR, 3000.0 nM read as 82

* * *

# MEASUREMENT_CONTEXT: cynomolgus monkey, in vivo, sc, 40 mg/kg
Could you label it true (1) if measured Mesenteric lymph nodes weight is 3 g or higher, and false (0) otherwise?

Solved entries:
INSERT INTO results (substance, label_class) VALUES
  ('GATTTAATGGTTGCAA (cEt gapmer chemistry, further chemistry not given here) [ISIS 586124]', 'false (0)'),
  ('TGATTTAATGGTTGCA [ISIS 569213] (cEt/MOE gapmer chemistry, further chemistry not given here)', 'false (0)'),
  ('ISIS 584468: antisense compound targeted to human AR (CATTGTACTATGCCAG; 3-10-3 (S)-cEt gapmer, further chemistry not given here)', 'true (1)'),
  ('ISIS 584269: antisense compound targeted to human AR (CCTTATGGATGCTGCT; 3-10-3 (S)-cEt gapmer, further chemistry not given here)', 'true (1)'),
  ('TGATTTAATGGTTGCA [ISIS 569216] (cEt/MOE gapmer chemistry, further chemistry not given here)', 'false (0)');

// next entry
Query string: Exam item: decide whether the reported Mesenteric lymph nodes weight for TGATTTAATGGTTGCA [ISIS 569236] (cEt/MOE gapmer chemistry, further chemistry not given here) is at least 3 g.
Result string: false (0)

* * *

# Tested on: AR mRNA
# EXPERIMENTAL_PROTOCOL: Antisense inhibition of human AR in HuVEC cells, single concentration (electroporation, qRT-PCR RTS3559)
# Assay type: cell-based
# MEASUREMENT_CONTEXT: 500 nM ASO, electroporation, ~24 h, Table 1
Oligonucleotides are written 5' to 3', each unit as a sugar letter and its base; * is a phosphorothioate linkage, no mark a phosphodiester; rarer units and linkages stand in square brackets, end groups in braces. Plain capitals give the bases only. k = constrained ethyl (cEt); [5mC] = 5-methylcytosine; d = 2'-deoxy (DNA)
RESULT_TYPE: % inhibition
Put your answer as a value accompanied by its unit after it.

INSERT INTO results (substance, result) VALUES
  ('549371 (kG*kT*kT*dG*dT*dA*dG*dT*dA*dG*dT*d[5mC]*dG*k[5mC]*kG*kA; antisense) [compound 549371]', '93%'),
  ('549387 (kA*kG*k[5mC]*dT*dT*d[5mC]*dA*dT*d[5mC]*dT*d[5mC]*d[5mC]*dA*k[5mC]*kA*kG; antisense) [compound 549387]', '84%'),
  ('549332 (kG*k[5mC]*kG*d[5mC]*dT*d[5mC]*dT*dG*dA*d[5mC]*dA*dG*d[5mC]*k[5mC]*kT*k[5mC]; antisense) [compound 549332]', '84%'),
  ('549362 (k[5mC]*k[5mC]*k[5mC]*dG*dA*dA*dG*d[5mC]*dT*dG*dT*dT*d[5mC]*k[5mC]*k[5mC]*k[5mC]; antisense) [compound 549362]', '85%'),
  ('549345 (kT*k[5mC]*kT*dG*dG*dA*dA*d[5mC]*dA*dG*dA*dT*dT*k[5mC]*kT*kG; antisense) [compound 549345]', '82%');

# % inhibition of 549366 (k[5mC]*kT*kT*dG*d[5mC]*d[5mC]*dT*dG*d[5mC]*dG*d[5mC]*dT*dG*kT*k[5mC]*kG; antisense) [compound 549366] = 84%

Looking up 549377 (kA*kG*kG*dA*dT*dG*dA*dG*dG*dA*dA*dG*d[5mC]*kG*kG*k[5mC]; antisense) [compound 549377] , I see its % inhibition listed as 90%

Sure, the documented % inhibition for 549361 (kG*kA*k[5mC]*dA*d[5mC]*d[5mC]*dG*dA*d[5mC]*dA*d[5mC]*dT*dG*k[5mC]*k[5mC]*kT; antisense) [compound 549361] is 84%

Form field % inhibition, entry 549338 (kG*kG*k[5mC]*dT*dG*dT*dG*dA*dT*dG*dA*dT*dG*k[5mC]*kG*kG; antisense) [compound 549338] : 83%

What the record says about 549386 (kG*k[5mC]*kT*dT*d[5mC]*dA*dT*d[5mC]*dT*d[5mC]*d[5mC]*dA*d[5mC]*kA*kG*kA; antisense) [compound 549386] : % inhibition is 77%

For 549358 (kA*kT*kG*dG*dT*dG*d[5mC]*dT*dG*dG*d[5mC]*d[5mC]*dT*k[5mC]*kG*k[5mC]; antisense) [compound 549358] the substance record lists % inhibition as 91%

* * *

Reported percent inhibition of AR, 750.0 nM is given for each of the following substances.
# Test system: AR mRNA
# EXPERIMENTAL_PROTOCOL: Dose-dependent antisense inhibition of human AR in HuVEC cells (electroporation, qRT-PCR RTS3559, IC50)
# Format: cell-based
# MEASUREMENT_CONTEXT: Table 33; 750.0 nM, HuVEC, electroporation, approximately 16 hours
Oligonucleotides are written 5' to 3', each unit as a sugar letter and its base; * is a phosphorothioate linkage, no mark a phosphodiester; rarer units and linkages stand in square brackets, end groups in braces. Plain capitals give the bases only. k = constrained ethyl (cEt); [5mC] = 5-methylcytosine; d = 2'-deoxy (DNA)

INSERT INTO results (substance, study_target, result) VALUES
  ('583868 (kA*k[5mC]*kT*d[5mC]*dA*dG*d[5mC]*dA*dG*dT*dA*dT*d[5mC]*kT*kT*k[5mC]; antisense) [compound 583868]', 'AR mRNA', '59%'),
  ('583892 (k[5mC]*kA*kG*d[5mC]*d[5mC]*dT*dA*dG*dG*d[5mC]*dT*d[5mC]*dT*k[5mC]*kG*k[5mC]; antisense) [compound 583892]', 'AR mRNA', '68%');

Read the next record carefully.
Entry under test: 583833 (kT*kG*kT*dT*d[5mC]*d[5mC]*d[5mC]*d[5mC]*dT*dG*dG*dA*d[5mC]*kT*k[5mC]*kA; antisense) [compound 583833] . Its percent inhibition of AR, 750.0 nM was 70%

* * *

# Test system: AR mRNA
# EXPERIMENTAL_PROTOCOL: Dose-dependent antisense inhibition of human AR in HuVEC cells (electroporation, qRT-PCR RTS3559, IC50)
# Format: cell-based
# MEASUREMENT_CONTEXT: Table 29; HuVEC, electroporation, approximately 16 hours
Oligonucleotides are written 5' to 3', each unit as a sugar letter and its base; * is a phosphorothioate linkage, no mark a phosphodiester; rarer units and linkages stand in square brackets, end groups in braces. Plain capitals give the bases only. k = constrained ethyl (cEt); [5mC] = 5-methylcytosine; d = 2'-deoxy (DNA)
RESULT_TYPE: IC50
Please answer in the form of a number followed by its unit of measurement.

Consider the following illustrative entries.
INSERT INTO results (substance, result_type, result) VALUES
  ('583662 (antisense kA*kG*kA*dA*dG*dA*d[5mC]*dA*d[5mC]*dA*d[5mC]*dG*dG*kT*kG*kG) [compound 583662]', 'IC50', '150 nM'),
  ('583638 (antisense kT*kG*kA*dT*d[5mC]*dT*d[5mC]*dT*dG*dG*d[5mC]*dT*d[5mC]*k[5mC]*kG*k[5mC]) [compound 583638]', 'IC50', '110 nM'),
  ('583566 (antisense k[5mC]*k[5mC]*kT*dT*dG*d[5mC]*dT*dT*d[5mC]*d[5mC]*dT*d[5mC]*d[5mC]*kG*kA*kG) [compound 583566]', 'IC50', '730 nM');

Sure, the documented IC50 for 549372 (kA*kA*kG*dT*dT*dG*dT*dA*dG*dT*dA*dG*dT*k[5mC]*kG*k[5mC]) [compound 549372] is 320 nM

Per the record, 583567 (antisense kG*k[5mC]*kA*d[5mC]*dT*dT*dT*d[5mC]*d[5mC]*dT*dT*dG*d[5mC]*kT*kT*k[5mC]) [compound 583567] has IC50 of 430 nM

Per the record, 583635 (antisense k[5mC]*kT*kG*dG*d[5mC]*dT*d[5mC]*d[5mC]*dG*d[5mC]*dA*d[5mC]*dT*k[5mC]*kG*kG) [compound 583635] has IC50 of 130 nM

The substance listed as 583613 (antisense kG*k[5mC]*kA*dA*dT*dG*dT*dG*d[5mC]*dA*dG*d[5mC]*dT*kA*kG*k[5mC]) [compound 583613] has a reported IC50 of 190 nM

For 583571 (antisense kT*k[5mC]*kA*dG*dT*d[5mC]*d[5mC]*dT*dA*d[5mC]*d[5mC]*dA*dG*kG*k[5mC]*kA) [compound 583571] the substance record lists IC50 as 800 nM
